binding signal listing for selected sequences.
target: pT7_6His-AlfaTag-HOXD13 (human, UniProt P35453 263-343); assay: PADIT-seq; settings: dsDNA, one strand shown
Sequence (P35453 263-343): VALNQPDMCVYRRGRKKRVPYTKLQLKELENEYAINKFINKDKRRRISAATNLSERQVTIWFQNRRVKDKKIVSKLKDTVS
Give just the number in log2FC; leave the unit off.

# return binding signal for CTCGAGGATATCAAGATCTGGCCTCGGCGACTTAAAAGGAACCTCTAGCTAGCCGACTCACTATAGGGATAATCGCCCTGAGCAAAGACC , test system: pT7_6His-AlfaTag-HOXD13 (human, UniProt P35453 263-343) 0.297

Return reported binding signal for target or system pT7_6His-AlfaTag-HOXD13 (human, UniProt P35453 263-343), item CTCGAGGATATCAAGATCTGGCCTCGGCCTTTTAACGGGAACCTCTAGCTAGCCGACTCACTATAGGGATAATCGCCCTGAGCAAAGACC . 1.98

Give binding signal for this entry on pT7_6His-AlfaTag-HOXD13 (human, UniProt P35453 263-343): CTCGAGGATATCAAGATCTGGCCTCGGCCCCCTAAAAGGAACCTCTAGCTAGCCGACTCACTATAGGGATAATCGCCCTGAGCAAAGACC 0.578

Report binding signal from pT7_6His-AlfaTag-HOXD13 (human, UniProt P35453 263-343) testing of CTCGAGGATATCAAGATCTGGCCTCGGCCTGGTAAAAGGAACCTCTAGCTAGCCGACTCACTATAGGGATAATCGCCCTGAGCAAAGACC 0.442

Recall the reported binding signal of CTCGAGGATATCAAGATCTGGCCTCGGCGCGTTAAAAGGAACCTCTAGCTAGCCGACTCACTATAGGGATAATCGCCCTGAGCAAAGACC when tested on pT7_6His-AlfaTag-HOXD13 (human, UniProt P35453 263-343). 1.22

Look up pT7_6His-AlfaTag-HOXD13 (human, UniProt P35453 263-343) data: binding signal of CTCGAGGATATCAAGATCTGGCCTCGGCTTTTTAATCGGAACCTCTAGCTAGCCGACTCACTATAGGGATAATCGCCCTGAGCAAAGACC , then report it. 1.1

Recall the reported binding signal of CTCGAGGATATCAAGATCTGGCCTCGGCCTTTTAGTTGGAACCTCTAGCTAGCCGACTCACTATAGGGATAATCGCCCTGAGCAAAGACC on pT7_6His-AlfaTag-HOXD13 (human, UniProt P35453 263-343) and write it down. 0.113

---

molecular target: pT7_6His-AlfaTag-ZIF268 (human, UniProt P18146 335-423); experiment: PADIT-seq; settings: dsDNA, one strand shown
ENDPOINT: binding signal (log2FC)
Give a bare numeral; the unit log2FC is implied.

Observe how each entry below is paired with its result.
Give binding signal for CTCGAGGATATCAAGATCTGGCCTCGGCATGTGGGCGGGAACCTCTAGCTAGCCGACTCACTATAGGGATAATCGCCCTGAGCAAAGACC 2.94

Give the value of binding signal reported for the following: CTCGAGGATATCAAGATCTGGCCTCGGCGTTTTAGTGGGAACCTCTAGCTAGCCGACTCACTATAGGGATAATCGCCCTGAGCAAAGACC 0.0814

Identify measured binding signal corresponding to CTCGAGGATATCAAGATCTGGCCTCGGCGCGTGGAAAGGAACCTCTAGCTAGCCGACTCACTATAGGGATAATCGCCCTGAGCAAAGACC 0.108

With those in mind, consider the next sequence.
For the sequence CTCGAGGATATCAAGATCTGGCCTCGGCGCGTGGCCCGGAACCTCTAGCTAGCCGACTCACTATAGGGATAATCGCCCTGAGCAAAGACC , give its reported binding signal. 0.0738

---

target: pT7_6His-AlfaTag-HOXD13 (human, UniProt P35453 263-343); experiment: PADIT-seq; conditions: dsDNA, one strand shown
Catalogue of sequences with associated binding signal
The reply should be a number in log2FC, with the unit left off.

Hello, please tell me recorded binding signal for this one: CTCGAGGATATCAAGATCTGGCCTCGGCTTTTTATACGGAACCTCTAGCTAGCCGACTCACTATAGGGATAATCGCCCTGAGCAAAGACC 2.44

Determine from records and report binding signal for CTCGAGGATATCAAGATCTGGCCTCGGCCGCCCAGCCGGAACCTCTAGCTAGCCGACTCACTATAGGGATAATCGCCCTGAGCAAAGACC -0.832

Input CTCGAGGATATCAAGATCTGGCCTCGGCAGGTTAAAAGGAACCTCTAGCTAGCCGACTCACTATAGGGATAATCGCCCTGAGCAAAGACC , output reported binding signal. 0.752

Please supply the value of reported binding signal for the item CTCGAGGATATCAAGATCTGGCCTCGGCGCGCAGGCGGGAACCTCTAGCTAGCCGACTCACTATAGGGATAATCGCCCTGAGCAAAGACC -1.07

Fill in binding signal for record CTCGAGGATATCAAGATCTGGCCTCGGCGGGGTAAAAGGAACCTCTAGCTAGCCGACTCACTATAGGGATAATCGCCCTGAGCAAAGACC -0.462

Entry CTCGAGGATATCAAGATCTGGCCTCGGCCTTTTAGGTGGAACCTCTAGCTAGCCGACTCACTATAGGGATAATCGCCCTGAGCAAAGACC needs its binding signal filled in; supply it. 0.366

Quickly give me recorded binding signal for CTCGAGGATATCAAGATCTGGCCTCGGCTTCATAAAAGGAACCTCTAGCTAGCCGACTCACTATAGGGATAATCGCCCTGAGCAAAGACC 2.49

---

biological target: pT7_6His-AlfaTag-HOXD13 (human, UniProt P35453 263-343); experiment: PADIT-seq; conditions: dsDNA, one strand shown
# binding signal listing for each entry below
The reply must contain the numeric value and, after it, the unit.

Below, 5 sequences whose answers are already recorded.
Provide only the value of recorded binding signal for CTCGAGGATATCAAGATCTGGCCTCGGCTTGTTAAAAGGAACCTCTAGCTAGCCGACTCACTATAGGGATAATCGCCCTGAGCAAAGACC 3.01 log2FC

Please report binding signal for the following sequence: CTCGAGGATATCAAGATCTGGCCTCGGCACCATAAAAGGAACCTCTAGCTAGCCGACTCACTATAGGGATAATCGCCCTGAGCAAAGACC 2.69 log2FC

State, in one line, measured binding signal of CTCGAGGATATCAAGATCTGGCCTCGGCATTTTACTAGGAACCTCTAGCTAGCCGACTCACTATAGGGATAATCGCCCTGAGCAAAGACC 3.18 log2FC

In one line, give reported binding signal of the entry CTCGAGGATATCAAGATCTGGCCTCGGCGCTTTAAAAGGAACCTCTAGCTAGCCGACTCACTATAGGGATAATCGCCCTGAGCAAAGACC . 1.94 log2FC

Name the recorded binding signal of the item CTCGAGGATATCAAGATCTGGCCTCGGCATTTTAAAGGGAACCTCTAGCTAGCCGACTCACTATAGGGATAATCGCCCTGAGCAAAGACC in your answer. 2.62 log2FC

Continuing:
Complete the entry with binding signal for CTCGAGGATATCAAGATCTGGCCTCGGCCTTTTAGTGGGAACCTCTAGCTAGCCGACTCACTATAGGGATAATCGCCCTGAGCAAAGACC 1.46 log2FC

Provide measured binding signal value, entry: CTCGAGGATATCAAGATCTGGCCTCGGCGTTTTAGTGGGAACCTCTAGCTAGCCGACTCACTATAGGGATAATCGCCCTGAGCAAAGACC 1.76 log2FC

Report binding signal, nothing else, for this sequence: CTCGAGGATATCAAGATCTGGCCTCGGCTTTTTATGTGGAACCTCTAGCTAGCCGACTCACTATAGGGATAATCGCCCTGAGCAAAGACC 2.89 log2FC

Give recorded binding signal. CTCGAGGATATCAAGATCTGGCCTCGGCAAACTAAAAGGAACCTCTAGCTAGCCGACTCACTATAGGGATAATCGCCCTGAGCAAAGACC -0.484 log2FC

Item CTCGAGGATATCAAGATCTGGCCTCGGCGTTCTAAAAGGAACCTCTAGCTAGCCGACTCACTATAGGGATAATCGCCCTGAGCAAAGACC : provide binding signal -0.197 log2FC

---

# binding signal per entry
target: pT7_6His-AlfaTag-HOXD13 (human, UniProt P35453 263-343); test: PADIT-seq; settings: dsDNA, one strand shown
Include the unit after the number when you answer.

Quickly give me recorded binding signal for CTCGAGGATATCAAGATCTGGCCTCGGCATTTTATTCGGAACCTCTAGCTAGCCGACTCACTATAGGGATAATCGCCCTGAGCAAAGACC 1.83 log2FC

Please look at this sequence and report its binding signal: CTCGAGGATATCAAGATCTGGCCTCGGCCCGTTAAAAGGAACCTCTAGCTAGCCGACTCACTATAGGGATAATCGCCCTGAGCAAAGACC 2.37 log2FC

Supply reported binding signal belonging to this sequence: CTCGAGGATATCAAGATCTGGCCTCGGCCTTTTACTTGGAACCTCTAGCTAGCCGACTCACTATAGGGATAATCGCCCTGAGCAAAGACC 0.95 log2FC

State its binding signal for this sequence: CTCGAGGATATCAAGATCTGGCCTCGGCGTTATAAAAGGAACCTCTAGCTAGCCGACTCACTATAGGGATAATCGCCCTGAGCAAAGACC 2.4 log2FC

Return reported binding signal. Input sequence: CTCGAGGATATCAAGATCTGGCCTCGGCATTTTAATAGGAACCTCTAGCTAGCCGACTCACTATAGGGATAATCGCCCTGAGCAAAGACC 2.83 log2FC

Further cases:
Identify binding signal associated with the sequence CTCGAGGATATCAAGATCTGGCCTCGGCGCGTGGACAGGAACCTCTAGCTAGCCGACTCACTATAGGGATAATCGCCCTGAGCAAAGACC -1.05 log2FC

Answer with the recorded binding signal for the sequence listed here: CTCGAGGATATCAAGATCTGGCCTCGGCCTGCTAAAAGGAACCTCTAGCTAGCCGACTCACTATAGGGATAATCGCCCTGAGCAAAGACC 0.179 log2FC

For the sequence CTCGAGGATATCAAGATCTGGCCTCGGCACGGTAAAAGGAACCTCTAGCTAGCCGACTCACTATAGGGATAATCGCCCTGAGCAAAGACC , give its reported binding signal. 0.528 log2FC

Look up and report measured binding signal for this entry: CTCGAGGATATCAAGATCTGGCCTCGGCACTTGGGCGGGAACCTCTAGCTAGCCGACTCACTATAGGGATAATCGCCCTGAGCAAAGACC -1.04 log2FC

Check the records and state binding signal for CTCGAGGATATCAAGATCTGGCCTCGGCGATATAAAAGGAACCTCTAGCTAGCCGACTCACTATAGGGATAATCGCCCTGAGCAAAGACC 1.99 log2FC

Give the value of binding signal reported for the following: CTCGAGGATATCAAGATCTGGCCTCGGCTCCATAAAAGGAACCTCTAGCTAGCCGACTCACTATAGGGATAATCGCCCTGAGCAAAGACC 2.64 log2FC
